Origin of the recorded values: the supplement of paper PMC9112550

Test system: Escherichia coli TOP10
assay info: shrunken log2 fold change of peptide-encoding DNA abundance (4.5 h post-induction vs induction); higher = less antimicrobial activity (less host growth inhibition)
test context: time post-induction: 4.5 h; library: site-saturation at positions 5, 18, 19, 20
Entries annotated with measured shrunken log2 fold change
attribute measured: shrunken log2 fold change

RRIRSRPPRLPRPRPRPFAMPRP	-0.0258
RRIRERPPRLPRPRPRPRFRPRP	0.0352
RRIRWRPPRLPRPRPRPCIHPRP	-0.0458
RRIRIRPPRLPRPRPRPVQNPRP	-0.425
RRIRARPPRLPRPRPRPDQTPRP	-0.0212
RRIRGRPPRLPRPRPRPQDHPRP	0.254
RRIRKRPPRLPRPRPRPHDIPRP	0.168
RRIRLRPPRLPRPRPRPAFSPRP	0.106
RRIRLRPPRLPRPRPRPAYRPRP	-0.0396
RRIRIRPPRLPRPRPRPYSEPRP	-0.535
RRIRFRPPRLPRPRPRPHKLPRP	-0.377
RRIRARPPRLPRPRPRPMHYPRP	-0.0399
RRIRCRPPRLPRPRPRPSHSPRP	-0.392
RRIRFRPPRLPRPRPRPGIAPRP	-0.15
RRIRYRPPRLPRPRPRPWITPRP	-0.0192
RRIRSRPPRLPRPRPRPVGIPRP	-0.012
RRIRDRPPRLPRPRPRPWICPRP	-0.298
RRIRARPPRLPRPRPRPHYCPRP	-0.17
RRIRTRPPRLPRPRPRPHLFPRP	-0.111
RRIRLRPPRLPRPRPRPEKRPRP	-0.148
RRIRWRPPRLPRPRPRPFFEPRP	-0.0187
RRIRTRPPRLPRPRPRPLWMPRP	-0.119
RRIRKRPPRLPRPRPRPYDKPRP	-0.124
RRIRTRPPRLPRPRPRPVMCPRP	-0.222
RRIRTRPPRLPRPRPRPHQMPRP	0.0521
RRIRSRPPRLPRPRPRPYKFPRP	-0.15
RRIRCRPPRLPRPRPRPQSLPRP	0.0939
RRIRLRPPRLPRPRPRPPVSPRP	0.11
RRIRYRPPRLPRPRPRPKRMPRP	-0.207
RRIRGRPPRLPRPRPRPNNPPRP	-0.171
RRIRPRPPRLPRPRPRPKPNPRP	0.356
RRIRARPPRLPRPRPRPMHSPRP	-0.106

====

System: Escherichia coli TOP10
assay info: shrunken log2 fold change of peptide-encoding DNA abundance (4.5 h post-induction vs induction); higher = less antimicrobial activity (less host growth inhibition)
test context: time post-induction: 4.5 h; library: site-saturation at positions 5, 18, 19, 20
Decide by shrunken log2 fold change: equal to or exceeding 0.02 means Condition met, less means Condition not met.

RRIRLRPPRLPRPRPRPSHGPRP	Condition not met
RRIRNRPPRLPRPRPRPRTFPRP	Condition not met
RRIRKRPPRLPRPRPRPWCGPRP	Condition met
RRIRGRPPRLPRPRPRPMPEPRP	Condition met
RRIRCRPPRLPRPRPRPLQEPRP	Condition met
RRIRLRPPRLPRPRPRPKSGPRP	Condition met
RRIRERPPRLPRPRPRPTTTPRP	Condition not met
RRIRCRPPRLPRPRPRPCVQPRP	Condition not met
RRIRVRPPRLPRPRPRPQRRPRP	Condition met
RRIRFRPPRLPRPRPRPTKSPRP	Condition met
RRIRFRPPRLPRPRPRPTVSPRP	Condition not met
RRIRMRPPRLPRPRPRPDLWPRP	Condition met
RRIRRRPPRLPRPRPRPFMRPRP	Condition met
RRIRHRPPRLPRPRPRPFMEPRP	Condition not met
RRIRQRPPRLPRPRPRPQWDPRP	Condition met
RRIRTRPPRLPRPRPRPFTNPRP	Condition not met
RRIRYRPPRLPRPRPRPNLNPRP	Condition not met
RRIRWRPPRLPRPRPRPVKMPRP	Condition met
RRIRFRPPRLPRPRPRPWNQPRP	Condition met
RRIRLRPPRLPRPRPRPNDRPRP	Condition not met
RRIRSRPPRLPRPRPRPRTNPRP	Condition met
RRIRGRPPRLPRPRPRPSNDPRP	Condition met
RRIRDRPPRLPRPRPRPVIPPRP	Condition met
RRIRFRPPRLPRPRPRPQIHPRP	Condition not met
RRIRWRPPRLPRPRPRPTTHPRP	Condition met
RRIRKRPPRLPRPRPRPWMLPRP	Condition not met
RRIRCRPPRLPRPRPRPMCCPRP	Condition not met
RRIRHRPPRLPRPRPRPCSIPRP	Condition not met
RRIRSRPPRLPRPRPRPTDFPRP	Condition not met
RRIRHRPPRLPRPRPRPKDGPRP	Condition met
RRIRGRPPRLPRPRPRPGCRPRP	Condition met
RRIRWRPPRLPRPRPRPTLYPRP	Condition not met

====

Test system: Escherichia coli TOP10
assay info: shrunken log2 fold change of peptide-encoding DNA abundance (4.5 h post-induction vs induction); higher = less antimicrobial activity (less host growth inhibition)
test context: time post-induction: 4.5 h; library: site-saturation at positions 5, 18, 19, 20
attribute measured: shrunken log2 fold change

RRIRGRPPRLPRPRPRPNCAPRP	0.811
RRIRRRPPRLPRPRPRPPYTPRP	0.00247
RRIRFRPPRLPRPRPRPYRIPRP	-0.34
RRIRSRPPRLPRPRPRPCKGPRP	-0.3
RRIRWRPPRLPRPRPRPWICPRP	-0.137
RRIRNRPPRLPRPRPRPFGEPRP	-0.0176
RRIRYRPPRLPRPRPRPLYDPRP	-0.51
RRIRGRPPRLPRPRPRPHAWPRP	0.595
RRIRARPPRLPRPRPRPHSVPRP	0.0268
RRIRNRPPRLPRPRPRPVCLPRP	-0.453
RRIRFRPPRLPRPRPRPSCPPRP	-0.72
RRIRQRPPRLPRPRPRPALTPRP	0.128
RRIRYRPPRLPRPRPRPDVFPRP	-0.0152
RRIRRRPPRLPRPRPRPCIYPRP	0.0603
RRIRQRPPRLPRPRPRPTDQPRP	0.411

====

Readings of shrunken log2 fold change for the listed sequences
Tested on: Escherichia coli TOP10
assay info: shrunken log2 fold change of peptide-encoding DNA abundance (4.5 h post-induction vs induction); higher = less antimicrobial activity (less host growth inhibition)
test context: time post-induction: 4.5 h; library: site-saturation at positions 5, 18, 19, 20
attribute measured: shrunken log2 fold change

RRIRSRPPRLPRPRPRPMNDPRP	-0.075
RRIRNRPPRLPRPRPRPRHDPRP	0.0353
RRIRCRPPRLPRPRPRPYQGPRP	0.0299
RRIRIRPPRLPRPRPRPWNMPRP	0.0777
RRIRMRPPRLPRPRPRPAQIPRP	-0.0435
RRIRARPPRLPRPRPRPPSHPRP	0.351
RRIRWRPPRLPRPRPRPTGCPRP	0.141
RRIRPRPPRLPRPRPRPFLSPRP	-0.312
RRIRARPPRLPRPRPRPHRPPRP	-0.0433
RRIRDRPPRLPRPRPRPYWKPRP	-0.00829
RRIRTRPPRLPRPRPRPVHAPRP	-0.00294
RRIRYRPPRLPRPRPRPHHFPRP	-0.288
RRIRSRPPRLPRPRPRPALDPRP	0.137
RRIRIRPPRLPRPRPRPKGSPRP	0.00745
RRIRERPPRLPRPRPRPHDVPRP	0.00785

====

Test system: Escherichia coli TOP10
assay info: shrunken log2 fold change of peptide-encoding DNA abundance (4.5 h post-induction vs induction); higher = less antimicrobial activity (less host growth inhibition)
test context: time post-induction: 4.5 h; library: site-saturation at positions 5, 18, 19, 20
attribute measured: shrunken log2 fold change

RRIRWRPPRLPRPRPRPEHMPRP	-0.122
RRIRRRPPRLPRPRPRPEWDPRP	0.426
RRIRPRPPRLPRPRPRPPAIPRP	0.325
RRIRGRPPRLPRPRPRPHAVPRP	0.657
RRIRHRPPRLPRPRPRPLINPRP	-0.201
RRIRFRPPRLPRPRPRPRMMPRP	-0.404
RRIRYRPPRLPRPRPRPASDPRP	-0.348
RRIRKRPPRLPRPRPRPADEPRP	0.19
RRIRGRPPRLPRPRPRPHPFPRP	-0.0384
RRIRTRPPRLPRPRPRPGPLPRP	0.185
RRIRERPPRLPRPRPRPPVLPRP	0.127
RRIRDRPPRLPRPRPRPWYYPRP	0.0606
RRIRYRPPRLPRPRPRPNNAPRP	-1.1
RRIRCRPPRLPRPRPRPPTMPRP	0.143
RRIRRRPPRLPRPRPRPQVNPRP	-0.0663

====

System: Escherichia coli TOP10;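 note: peptides expressed intracellularly from a pBAD plasmid library in pooled LB shake-flask culture, induced with 0.3% L-arabinose, DNA abundance read by NGS, three biological replicates, DESeq2 with apeglm shrinkage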
assay info: shrunken log2 fold change of peptide-encoding DNA abundance (4.5 h post-induction vs induction); higher = less antimicrobial activity (less host growth inhibition)
test context: time post-induction: 4.5 h; library: site-saturation at positions 5, 18, 19, 20
attribute measured: shrunken log2 fold change

RRIRMRPPRLPRPRPRPCTRPRP	-0.0828
RRIRDRPPRLPRPRPRPPKCPRP	0.0933
RRIRQRPPRLPRPRPRPDNHPRP	-0.35
RRIRFRPPRLPRPRPRPQMLPRP	-0.179
RRIRARPPRLPRPRPRPYIEPRP	-0.44
RRIRTRPPRLPRPRPRPLEEPRP	-0.0207
RRIRYRPPRLPRPRPRPDREPRP	-0.15
RRIRARPPRLPRPRPRPAPTPRP	0.838
RRIRIRPPRLPRPRPRPICTPRP	-0.458
RRIRSRPPRLPRPRPRPMSDPRP	-0.195
RRIRERPPRLPRPRPRPEYHPRP	-0.242
RRIRIRPPRLPRPRPRPILAPRP	-0.286
RRIRMRPPRLPRPRPRPPMQPRP	0.504
RRIRGRPPRLPRPRPRPNEMPRP	0.703
RRIRYRPPRLPRPRPRPPGYPRP	1.43
